Each recorded value in this set is attributed to ChEMBL document CHEMBL1201862.

System: NCI-H522
experimentalProtocol: NCI tumour cell line growth inhibition, 48 h
Active and inactive are the calls of the source. No stated cut-off is given here; in the data, active = GI50 up to about 1.1 µM and inactive = higher.
Lab note: assign the record to one of active, inactive

Req: Recorded test call requested for COc1cc2c(cc1OC)C13CCN4CC5CCOC6CC(=O)N2C1C6C5CC43 (centres undefined)
Resp: inactive

Req: Now the compound O=c1[nH]ncc2[nH]c3c(c12)CCCc1ccccc1-3
Resp: inactive

Req: Now the compound O=CNc1ncn[nH]1
Resp: inactive

Req: Now the compound O=C(CCC(=O)Nc1ccc(Cl)c(Cl)c1)CC(=O)c1ccc(Cl)cc1
Resp: inactive

Req: Now the compound COC1OC(COC(=O)c2cc(O)c(O)c(O)c2)C(OC(=O)c2cc(O)c(O)c(O)c2)C(OC(=O)c2cc(O)c(O)c(O)c2)C1OC(=O)c1cc(O)c(O)c(O)c1 (centres undefined)
Resp: inactive

Req: Now the compound Nc1ncnc2c1ncn2[C@@H]1O[C@H](C(=O)O)[C@@H](O)[C@H]1O [5'-CARBOXY ADENOSINE]
Resp: inactive

Req: Now the compound CCCCCCCCCC[C@@H](O)[C@@H]1CC[C@@H]([C@@H]2CC[C@@H]([C@@H](O)CCCCCCCCCCC(O)CC3=CC(C)OC3=O)O2)O1 (some centres undefined)
Resp: active

Req: Now the compound Cc1nccn1S(=O)(=O)c1ccc(Br)cc1Br
Resp: inactive

Req: Now the compound CN(c1ccccc1)S(=O)(=O)c1ccc([N+](=O)[O-])cc1
Resp: inactive

---

Answer each item with its documented GI50.
Test system: BT-549
experimentalProtocol: NCI tumour cell line growth inhibition, 48 h
Calls of active or inactive are those of the source. No stated cut-off is given here; in the data, active = GI50 up to about 1.1 µM and inactive = higher.

Req: Please give the measured GI50 for this molecule: Clc1ccc(-c2cc(-c3nc4ccccc4[nH]3)no2)cc1
Resp: 21.6 µM (inactive)

Req: Now the molecule Cc1nccn1S(=O)(=O)c1ccc(Br)cc1Br
Resp: 56.2 µM (inactive)

Req: Now the molecule CC(=O)OC1CC[C@@]2(C)C(=CC[C@@H]3[C@@H]2CC[C@]2(C)Nc4nn(S(C)(=O)=O)cc4C[C@@H]32)C1 (stereo partly drawn)
Resp: 20.3 µM (inactive)

Req: Now the molecule CC(=O)[C@]1(O)Cc2c(O)c3c(c(O)c2C(OC2OC(C)C(O)C(O)C2F)C1)C(=O)c1ccccc1C3=O (stereo partly drawn)
Resp: 0.358 µM (active)

Req: Now the molecule CC(=O)OCC1OC(OC2CC3C(C)(C)C(OC(C)=O)CC[C@]3(C)C3CCC45CC4(CCC5[C@@H](C)C[C@H](O)C(O)C(C)(C)O)[C@]23C)C(O)C(O)C1O (stereo partly drawn)
Resp: > 10 µM (inactive)

Req: Now the molecule NCC(O)CSP(=O)(O)O (stereo not drawn)
Resp: > 100 µM (inactive)

Req: Now the molecule OC[C@H]1CCCC1O (stereo partly drawn)
Resp: > 100 µM (inactive)

Req: Now the molecule CC(=O)OCC1OC(N2C(=O)/C(=C\c3ccc(Cl)cc3)C(N)=Nc3ccccc32)C(OC(C)=O)C(OC(C)=O)C1OC(C)=O (stereo not drawn)
Resp: 27.9 µM (inactive)

Req: Now the molecule Cc1ccc2c(O)cc(-c3cccs3)nc2n1
Resp: > 100 µM (inactive)

Req: Now the molecule COCC(=O)[C@]1(O)Cc2c(O)c3c(c(O)c2[C@@H](OC2CC(N)C(O)C(C)O2)C1)C(=O)c1c(OC)cccc1C3=O (stereo partly drawn)
Resp: 0.161 µM (active)

Req: Now the molecule COc1ccc2c(C)cc(C)nc2n1
Resp: > 100 µM (inactive)

Req: Now the molecule Cc1c2cnccc2c(C)c2c1[nH]c1ccc(O)cc12
Resp: 6.01 µM (inactive)

Req: Now the molecule C=CC[C@@]1(C(=O)OC)[C@H](Sc2ccccc2)C1(C)C
Resp: 46 µM (inactive)

Req: Now the molecule CC(=O)CC(C)(C)NC(=O)[C@@]1(O)CC[C@H]2[C@@H]3CCC4=CC(=O)CC[C@@H]4[C@H]3CC[C@@]21C
Resp: > 100 µM (inactive)

Req: Now the molecule O=[N+]([O-])c1ccc(S(=O)(=O)Cc2ccccc2)c2nonc12
Resp: 18.5 µM (inactive)

Req: Now the molecule CC(C)NC(=O)OCC[S+]([O-])c1c(Cl)c(Cl)nn1C (stereo not drawn)
Resp: > 10 µM (inactive)

Req: Now the molecule CC1OC(OC2C(CO)OC(O[C@H]3CC[C@@]4(C)C(=CC[C@H]5[C@@H]6C[C@@H]7O[C@](O)(CC[C@@H](C)COC8OC(CO)C(O)C(O)C8O)[C@@H](C)[C@@H]7[C@@]6(C)CC[C@@H]54)C3)C(OC3OC(C)C(O)C(O)C3O)C2O)C(O)C(O)C1O (stereo partly drawn)
Resp: 3.88 µM (inactive)

Req: Now the molecule Cc1nnc(N)s/c1=N/O
Resp: > 100 µM (inactive)
